// values below are reported pEC50
tested on: Human immunodeficiency virus 1; assay: Antiviral activity against MDR1-resistant HIV1 infected in human MT4 cells assessed as protection from virus-induced cytopathogenicity after 4 days by MTT assay; type: functional, organism-based; details: Human immunodeficiency virus 1, MT4, 96 h
API: returns pEC50 as number; meaning -log10 of concentration in mol/L.

Example results:
[[record]]
compound = "Cc1cn([C@H]2C[C@H](N=[N+]=[N-])[C@@H](COP(=O)(Oc3ccc(Cl)cc3)Oc3cccnc3)O2)c(=O)[nH]c1=O (some centres undefined)"
tested_target = "Human immunodeficiency virus 1"
test_result = 6.15

[[record]]
compound = "Cc1cn([C@H]2C[C@H](N=[N+]=[N-])[C@@H](COP(=O)(Oc3ccc(C#N)cc3)Oc3cccnc3)O2)c(=O)[nH]c1=O (some centres undefined)"
tested_target = "Human immunodeficiency virus 1"
test_result = 6.52


Log: Human immunodeficiency virus 1, compound Cc1ccc(OP(=O)(OC[C@H]2O[C@@H](n3cc(C)c(=O)[nH]c3=O)C[C@@H]2N=[N+]=[N-])Oc2ccccc2)cn1 (some centres undefined) , pEC50 = 5.80

###

assay: Chemical stability assessed as enzymatic hydrolysis half life in RPMI-1640 culture medium containing heat non-inactivated fetal bovine serum by HPLC analysis; assay type: physicochemical; settings: cattle
Would you please tag the item yes (1) when its half-life is 40 h or above, and no (0) when it is below?

[[record]]
compound_string = "Cc1cn([C@H]2C[C@H](N=[N+]=[N-])[C@@H](COP(=O)(O)Oc3cccnc3)O2)c(=O)[nH]c1=O"
class = "no (0)"

[[record]]
compound_string = "Cc1cn([C@H]2C[C@H](N=[N+]=[N-])[C@@H](COP(=O)(O)Oc3ccncc3)O2)c(=O)[nH]c1=O"
class = "no (0)"

[[record]]
compound_string = "Nc1ncnc2c1ncn2[C@H]1CC[C@@H](COP(=O)(O)Oc2ccccc2)O1"
class = "no (0)"

[[record]]
compound_string = "Cc1cn([C@H]2C[C@H](N=[N+]=[N-])[C@@H](COP(=O)(O)Oc3ccc(Br)cc3)O2)c(=O)[nH]c1=O"
class = "no (0)"


Consider now this further molecule.
Ask | Does half-life meet or surpass 40 h for O=c1ccn([C@H]2CC[C@@H](COP(=O)(O)Oc3cccnc3)O2)c(=O)[nH]1 ?
Reply | yes (1)

###

test system: Human immunodeficiency virus 1; assay: Antiviral activity against non-nucleoside reverse transcriptase inhibitor-resistant HIV1 bearing reverse transcriptase N119 (Y181C) mutation infected in human MT4 cells assessed as protection from virus-induced cytopathogenicity after 4 days by MTT assay; format: functional, organism-based; conditions: Human immunodeficiency virus 1, MT4, 96 h
pEC50: −log10 of the molar value.
Decision: pEC50 compared against 7; not below it gives true (1), below it gives false (0).

Past entries and their recorded results:
[[record]]
molecule = "Cc1cn([C@H]2C[C@H](N=[N+]=[N-])[C@@H](COP(=O)(Oc3ccc(Br)cc3)Oc3cccnc3)O2)c(=O)[nH]c1=O (stereo not given in full)"
class = "true (1)"

[[record]]
molecule = "Cc1cn([C@H]2C[C@H](N=[N+]=[N-])[C@@H](COP(=O)(Oc3ccc(Cl)cc3)Oc3cccnc3)O2)c(=O)[nH]c1=O (stereo not given in full)"
class = "true (1)"

[[record]]
molecule = "Cc1ncccc1OP(=O)(OC[C@H]1O[C@@H](n2cc(C)c(=O)[nH]c2=O)C[C@@H]1N=[N+]=[N-])Oc1cccnc1C"
class = "true (1)"


Consider the record given below.
Ask | Check this molecule for pEC50 at or above 7: Cc1cn([C@H]2C[C@H](N=[N+]=[N-])[C@@H](COP(=O)(Oc3ccccc3)Oc3cccnc3Cl)O2)c(=O)[nH]c1=O (stereo not given in full)
Reply | true (1)
